biological target: MopR M100Q_L119N (Acinetobacter guillouiae, UniProt Q43965, L119N/M100Q); test: biochemical
measured attribute: Kd
Answer format: value, then unit.

## Task I have this compound here, `Oc1ccccc1` , and I need its recorded Kd.
## Result 2.7 µM

---

Target: wild type MopR (Acinetobacter guillouiae)
Sequence (Q43965 1-229): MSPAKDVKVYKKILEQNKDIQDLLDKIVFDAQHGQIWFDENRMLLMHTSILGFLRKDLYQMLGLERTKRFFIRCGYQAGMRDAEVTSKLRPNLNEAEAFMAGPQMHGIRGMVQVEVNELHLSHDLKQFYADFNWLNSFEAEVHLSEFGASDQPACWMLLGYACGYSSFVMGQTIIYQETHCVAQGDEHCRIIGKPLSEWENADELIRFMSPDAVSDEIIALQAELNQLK
measured attribute: Kd (µM)
Respond with the bare value in µM.

## Task Which Kd value is on record for `Oc1ccccc1` ?
## Result 0.46
